System: MDA-MB-231 breast
ASSAY_METHOD_TEXT: NCI-60 one-dose screen, 48 h (100 = growth as untreated, 0 = no growth, -100 = all killed)
CONDITION_DESCRIPTION: 10 µM unless noted
The panel holds about 83,000 compounds, 20% with a hit somewhere; the sample as a whole holds those more often.

{"columns": ["COMPOUND", "growth, %"],
 "data": [
  ["C=C1C(=O)O[C@H]2[C@H]1CC/C(COC(=O)NCC(=O)Nc1ccc(OC)c(C(N)=O)c1O)=C\\CC[C@@]1(C)O[C@@H]21", 68.2],
  ["Cc1ccc(SC2c3ccc(C)cc3Oc3nc(N)c(C#N)c(N)c32)cc1 (stereo not drawn)", 69.9],
  ["COc1cc(-c2nn(-c3ccc(Br)cc3)cc2CO)ccc1O", 68.9]
]}
